Test Settings: in DMF, 283.15 K
Outcome Measure: solubility (mole fraction)
Respond numerically, and do not add a unit to the figure.

Inquiry: Query (compound): `C[C@@H]1O[C@@H]1P(=O)([O-])[O-].[Na+].[Na+]` ; field requested: solubility (mole fraction)
Reply text: 0.000606

====

Test Settings: in ethanol, 303.15 K
Outcome Measure: solubility (mole fraction)
Answer using only a numeral; do not append any unit.

Inquiry: solubility (mole fraction) lookup needed for `C[C@@H]1O[C@@H]1P(=O)([O-])[O-].[Na+].[Na+]` , thanks.
Reply text: 0.000548

====

Test Settings: in n-propanol, 308.15 K
Outcome Measure: solubility (mole fraction)
Quick one: just the number, no unit, thanks!

Inquiry: What solubility (mole fraction) value was documented for this compound, `C[C@@H]1O[C@@H]1P(=O)([O-])[O-].[Na+].[Na+]` ?
Reply text: 1.95e-05

====

Test Settings: in acetone, 293.15 K
Outcome Measure: solubility (mole fraction)
Reply with just the number.

Inquiry: Quick one: solubility (mole fraction) of `C[C@@H]1O[C@@H]1P(=O)([O-])[O-].[Na+].[Na+]` ?
Reply text: 0.000138

====

Test Settings: in methanol, 293.15 K
Outcome Measure: solubility (mole fraction)

Inquiry: What does the data say about its solubility (mole fraction)? Entry: `C[C@@H]1O[C@@H]1P(=O)([O-])[O-].[Na+].[Na+]`
Reply text: 0.0152

====

Test Settings: in methanol, 323.15 K
Outcome Measure: solubility (mole fraction)
The answer should be written as a number, with no unit following it.

Inquiry: Quick one: solubility (mole fraction) of `C[C@@H]1O[C@@H]1P(=O)([O-])[O-].[Na+].[Na+]` ?
Reply text: 0.00984

====

Test Settings: in cyclohexane, 313.15 K
Outcome Measure: solubility (mole fraction)
Could you keep your reply to the number by itself?

Inquiry: Bench note: what solubility (mole fraction) did `C[C@@H]1O[C@@H]1P(=O)([O-])[O-].[Na+].[Na+]` show?
Reply text: 0.000175

====

Test Settings: in n-propanol, 283.15 K
Outcome Measure: solubility (mole fraction)
Lab note: write the figure by itself, no unit.

Inquiry: Please report the recorded solubility (mole fraction) for `C[C@@H]1O[C@@H]1P(=O)([O-])[O-].[Na+].[Na+]` .
Reply text: 0.000108

====

Test Settings: in cyclohexane, 303.15 K
Outcome Measure: solubility (mole fraction)
Just the number, please, no unit after it.

Inquiry: Requested read-out: solubility (mole fraction). Entry: `C[C@@H]1O[C@@H]1P(=O)([O-])[O-].[Na+].[Na+]`
Reply text: 0.000226

====

Test Settings: in cyclohexane, 323.15 K
Outcome Measure: solubility (mole fraction)

Inquiry: Record request: solubility (mole fraction) value, item `C[C@@H]1O[C@@H]1P(=O)([O-])[O-].[Na+].[Na+]`
Reply text: 0.000128

====

Test Settings: in ethanol, 293.15 K
Outcome Measure: solubility (mole fraction)
Give only the figure.

Inquiry: Which solubility (mole fraction) value is on record for `C[C@@H]1O[C@@H]1P(=O)([O-])[O-].[Na+].[Na+]` ?
Reply text: 0.000769

====

Test Settings: in acetone, 288.15 K
Outcome Measure: solubility (mole fraction)
Lab note: write the figure by itself, no unit.

Inquiry: Item under review: `C[C@@H]1O[C@@H]1P(=O)([O-])[O-].[Na+].[Na+]` . Reported solubility (mole fraction)?
Reply text: 0.00016

Attribution: BigSolDB 2.1
